protocolNotes: logP determination by HPLC on a reversed-phase column (C18), EEC Directive 79/831 Annex V.A8
Format: physicochemical
studyConditions: HPLC on reversed-phase column (C18), acetonitrile/water with formic acid, EEC Directive 79/831 Annex V.A8
Experimental: ^a) Note regarding the determination of the logP values and mass detection: The determination of the given logP values was carried out in accordance with EEC Directive 79/831 Annex V.A8 by HPLC (High Performance Liquid Chromatography) on a reversed-phase column (C18). […]
quantityName: logP

INSERT INTO results (molecule, quantityname, valuereported) VALUES
  ('CSCC1CCC1NC(=O)c1cc(-c2cnn(-c3c(C(F)(F)F)c(C(F)(F)C(F)(F)F)nn3C)c2)ccc1Cl (stereo not shown) [Ic-120]', 'logP', 4.56),
  ('Cn1nc(C(F)(F)C(F)(F)F)c(C(F)(F)F)c1-n1cc(-c2ccc(C(F)(F)F)c(C(=O)NC3CC3)c2)cn1 [Ic-196]', 'logP', 3.96),
  ('Cn1nc(C(F)(F)F)c(CCl)c1-n1cc(-c2ccc(Cl)c(C(=O)NC3CC3)c2)cn1 [Ic-114]', 'logP', 3.12),
  ('CCN(CC)C(=O)c1cc(-c2cnn(-c3c(C(F)(F)F)c(C(F)(F)C(F)(F)F)nn3C)c2)ccc1S(=O)(=O)NC1CC1 [Ic-197]', 'logP', 4.39),
  ('Cn1nc(C(F)(F)C(F)(F)F)c(C(F)(F)F)c1-n1cc(-c2ccc(Cl)c(C(=O)NC3CC3)c2)c(C(F)(F)F)n1 [Ic-4]', 'logP', 4.51),
  ('Cn1nc(C(F)(F)C(F)(F)F)c(C(F)(F)F)c1-n1cc(-c2ccc(Cl)c(C(=O)NC3(C#N)CSC3)c2)cn1 [Ic-128]', 'logP', 4.38);

The record that follows has no logP shown yet.
Challenge: Need logP of Cn1nc(C(F)(F)C(F)(F)F)c(C(F)(F)F)c1-n1cc(-c2ccc(Cl)c(C(=O)NC3(C(F)(F)F)CC3)c2)cn1 [Ic-32] , thanks.
Response given: 4.29

* * *

System: adult cat fleas (Ctenocephalides felis)
protocolNotes: Ctenocephalides felis in vitro contact test with adult cat fleas (T1)
studyConditions: application rate 1 μg/cm^2; after 48 h
efficacy (dead or moribund fleas) listing for selected molecules.
Number only, in %; omit the unit.

INSERT INTO assay_data (smilesstring, unitsofmeasure, valuereported) VALUES
  ('Cn1nc(C(F)(F)C(F)(F)F)c(C(F)(F)F)c1-n1cc(-c2ccc(Br)c(C(=O)NC3(C#N)CC3)c2)cn1', '%', 100),
  ('Cn1nc(C(F)(F)C(F)(F)F)c(C(F)(F)F)c1-n1cnc(-c2ccc(Cl)c(C(=O)NC3CC3)c2)c1', '%', 100),
  ('Cn1nc(C(F)(F)C(F)(F)F)c(C(F)(F)F)c1-n1cc(-c2cc(Cl)c(Cl)c(C(=O)NC3CC3)c2)cn1', '%', 100);

The record that follows has no efficacy (dead or moribund fleas) shown yet.
Challenge: Need efficacy (dead or moribund fleas) of Cn1nc(C(F)(F)C(F)(F)F)c(C(F)(F)F)c1-n1cc(-c2ccc(Cl)c(C(=O)NCc3ncc[nH]3)c2)cn1 , thanks.
Response given: 80

* * *

efficacy (kill in %) listing for selected compounds.
Tested on: L1 larvae of the Australian sheep blowfly (Lucilia cuprina)
protocolNotes: Lucilia cuprina test (LUCICU)
Assay type: in vivo
studyConditions: application rate 100 ppm; after 2 days
Number only, in %; omit the unit.

// known answers, use as guide
INSERT INTO measurements (compound, quantityname, valuereported) VALUES
  ('Cn1nc(C(F)(F)C(F)(F)F)c(C(F)(F)F)c1-n1cc(-c2ccc(Cl)c(C(=O)NCC(C)(F)F)c2)cn1 [Ic-80]', 'efficacy (kill in %)', 100),
  ('Cc1ncc(-c2cnn(-c3c(C(F)(F)F)c(C(F)(F)C(F)(F)F)nn3C)c2)cc1C(=O)NC1CC1 [Ic-84]', 'efficacy (kill in %)', 100),
  ('Cn1nc(C(F)(F)C(F)(F)F)c(C(F)(F)F)c1-n1ccc(-c2ccc(Cl)c(C(=O)NC3CC3)c2)c1 [Ia-2]', 'efficacy (kill in %)', 100);

Challenge: Need efficacy (kill in %) of Cn1nc(C(F)(F)C(F)(F)F)c(C(F)(F)F)c1-n1cc(-c2ccc(Cl)c(C(=O)NCC(F)(F)F)c2)cn1 [Ic-23] , thanks.
Response given: 100

Challenge: Need efficacy (kill in %) of Cn1nc(C(F)(F)C(F)(F)F)c(C(F)(F)F)c1-n1cc(-c2ccc(Cl)c(C(=O)NCC3CC3)c2)cn1 [Ic-153] , thanks.
Response given: 100

Challenge: Need efficacy (kill in %) of Cn1nc(C(F)(F)C(F)(F)F)c(C(F)(F)F)c1-n1cc(-c2ccc(Cl)c(C(=O)Nc3cc[nH]n3)c2)cn1 [Ic-150] , thanks.
Response given: 100

* * *

logP listing for selected compounds.
protocolNotes: logP determination by HPLC on a reversed-phase column (C18), EEC Directive 79/831 Annex V.A8
Assay type: physicochemical
studyConditions: HPLC on reversed-phase column (C18), acetonitrile/water with formic acid, EEC Directive 79/831 Annex V.A8
Kindly provide the number alone.

// known answers, use as guide
INSERT INTO results (compound, valuereported) VALUES
  ('Cn1nc(C(F)(F)C(F)(F)F)c(C(F)(F)F)c1-n1cc(-c2ccc(Cl)c(C(=O)NC3CCC3[S+](C)[O-])c2)cn1 (stereo not shown)', 3.17),
  ('Cn1nc(C(F)(F)C(F)(F)F)c(C(F)(F)F)c1-n1cc(-c2ccc(Cl)c(C(=O)NCc3ccccc3)c2)cn1', 4.39),
  ('O=C(NC1CC1)c1cc(-c2cnn(-c3c(C(F)(F)F)c(C(F)(F)C(F)(F)F)nn3-c3ncccc3Cl)c2)ccc1Cl', 4.28);

Challenge: Need logP of Cn1nc(C(F)(F)F)c(CO)c1-n1cc(-c2ccc(Cl)c(C(=O)NC3CC3)c2)cn1 , thanks.
Response given: 2.15

* * *

Test system: L1 larvae of the Australian sheep blowfly (Lucilia cuprina)
protocolNotes: Lucilia cuprina test (LUCICU)
Type: in vivo
studyConditions: application rate 100 ppm; after 2 days
quantityName: efficacy (kill in %)
Number only, in %; omit the unit.

// known answers, use as guide
INSERT INTO measurements (smilesstring, quantityname, unitsofmeasure, valuereported) VALUES
  ('Cn1nc(C(F)(F)C(F)(F)F)c(C(F)(F)F)c1-n1cc(-c2cc(C(=O)NC3(C#N)CC3)ncc2F)cn1', 'efficacy (kill in %)', '%', 100),
  ('Cc1nn(-c2c(C(F)(F)F)c(C(F)(F)C(F)(F)F)nn2C)cc1-c1ccc(Cl)c(C(=O)NC2CC2)c1', 'efficacy (kill in %)', '%', 100),
  ('Cn1nc(C(F)(F)C(F)(F)F)c(C(F)(F)F)c1-n1cc(-c2cc(C(=O)NC3CC3)c(Cl)cc2F)cn1', 'efficacy (kill in %)', '%', 95);

The record that follows has no efficacy (kill in %) shown yet.
Challenge: Need efficacy (kill in %) of Cn1nc(C(F)(F)C(F)(F)F)c(C(F)(F)F)c1-n1cc(-c2cccc(C(=O)NC3CC3)c2F)cn1 , thanks.
Response given: 100

* * *

Tested on: larvae of the mustard beetle (Phaedon cochleariae)
protocolNotes: Phaedon cochleariae spray test (PHAECO)
Type: in vivo
studyConditions: application rate 500 g/ha; Chinese cabbage leaf discs; after 7 days
efficacy in % listing for selected molecules.
Number only, in %; omit the unit.

// known answers, use as guide
INSERT INTO measurements (smilesstring, quantityname, valuereported) VALUES
  ('Cn1nc(C(F)(F)C(F)(F)F)c(C(F)(F)F)c1-n1cc(-c2cc(F)c(F)c(C(=O)NC3CC3)c2)cn1', 'efficacy in %', 100),
  ('Cn1nc(C(F)(F)C(F)(F)F)c(C(F)(F)F)c1-n1cc(-c2cncc(C(=O)NC3(C#N)CC3)n2)cn1', 'efficacy in %', 100);

The record that follows has no efficacy in % shown yet.
Challenge: Need efficacy in % of Cn1nc(C(F)(F)C(F)(F)F)c(C(F)(F)F)c1-n1cc(-c2cc(C(=O)NC3CC3)ncc2F)cn1 , thanks.
Response given: 100

* * *

logP listing for selected molecules.
protocolNotes: logP determination by HPLC on a reversed-phase column (C18), EEC Directive 79/831 Annex V.A8
Format: physicochemical
studyConditions: HPLC, reversed-phase C18, acetonitrile (0.1% formic acid)/water (0.09% formic acid) gradient
Kindly provide the number alone.

INSERT INTO results (smilesstring, quantityname, valuereported) VALUES
  ('Cn1nc(C(F)(F)C(F)(F)F)c(C(F)(F)F)c1-n1ccc(-c2ccc(Cl)c(C(=O)NC3CC3)c2)n1', 'logP', 3.97),
  ('Cn1nc(C(F)(F)C(F)(F)F)c(C(F)(F)F)c1-n1cnc(-c2ccc(Cl)c(C(=O)NC3(C#N)CC3)c2)n1', 'logP', 3.62),
  ('Cn1nc(C(F)(F)C(F)(F)F)c(C(F)(F)F)c1-n1cnc(-c2cccc(C(=O)Nc3ccc(Cl)nc3)c2)n1', 'logP', 4.24),
  ('Cn1nc(C(F)(F)C(F)(F)F)c(C(F)(F)F)c1-n1cnc(-c2cccc(C(=O)NC3(C#N)CC3)c2)n1', 'logP', 3.46),
  ('Cn1nc(C(F)(F)C(F)(F)F)c(C(F)(F)F)c1-n1cnc(-c2cccc(C(=O)NC3(C(N)=S)CC3)c2)n1', 'logP', 3.29),
  ('Cn1nc(C(F)(F)C(F)(F)F)c(C(F)(F)F)c1-n1ccc(-c2ccc(Cl)c(C(=O)NC3(C#N)CC3)c2)n1', 'logP', 3.87);

The record that follows has no logP shown yet.
Challenge: Need logP of Cn1nc(C(F)(F)C(F)(F)F)c(C(F)(F)F)c1-n1cnc(-c2ccc(Cl)c(C(=O)NC3CC3)c2)c1 , thanks.
Response given: 3.43
